TARGET_OR_TEST_SYSTEM: human placenta aldose reductase (Homo sapiens)
Construct: The aldose reductase enzyme standard was prepared from human placenta; from tissue; host or cells: human placenta
ASSAY_REMARKS: Aldose reductase of human origin inhibitory activity
Format: biochemical
CONDITION_LABEL: ratio of IC50 aldehyde reductase to aldose reductase, human placenta
PROPERTY: Ratio HPALR/HPAR

Below are worked cases with known answers.
O=C(O)CC1Sc2ccccc2N(Cc2nc3c(F)c(F)cc(F)c3s2)C1=O (centres unmarked): > 1000
O=C(O)CC1Sc2ccccc2N(Cc2nc3c(F)c(F)ccc3s2)C1=O (centres unmarked): > 1075
O=C(O)CC1Sc2cc(F)ccc2N(Cc2nc3c(F)c(F)cc(F)c3s2)C1=O (centres unmarked): > 714
Cc1ccc2c(c1)N(Cc1nc3c(F)c(F)cc(F)c3s1)C(=O)C(CC(=O)O)S2 (centres unmarked): > 833

Now look at this entry.
Query: So what Ratio HPALR/HPAR did O=C(O)CC1Sc2c(F)cccc2N(Cc2nc3c(Cl)c(Cl)ccc3s2)C1=O (centres unmarked) get with human placenta aldose reductase (Homo sapiens)?
Reply: > 769

* * *

TARGET_OR_TEST_SYSTEM: aldose reductase (Sus scrofa, UniProt P80276)
Construct: porcine crystalline lens stored at -80° C. was homogenized in distilled water; from tissue; host or cells: porcine crystalline lens
ASSAY_REMARKS: Aldose reductase inhibitory activity (porcine crystalline lens enzyme)
Assay type: biochemical
CONDITION_LABEL: d1-glyceraldehyde 3 mM, pH 6.2, 25° C., 2 minutes
Catalogue of IC50 values
# number only, unit nM dropped from output

Known IC50 results, listed for orientation:
O=C(O)CC1Sc2cc(F)ccc2N(Cc2nc3c(F)c(F)cc(F)c3s2)C1=O (centres unmarked): 9.7
O=C(O)CC1Sc2ccccc2N(Cc2nc3c(Cl)c(Cl)cc(Cl)c3s2)C1=O (centres unmarked): 9.1
O=C(O)CC1Sc2cc(Cl)ccc2N(Cc2nc3c(F)c(F)cc(F)c3s2)C1=O (centres unmarked): 8.7
O=C(O)CC1Sc2cccc(F)c2N(Cc2nc3cc(F)ccc3s2)C1=O (centres unmarked): 16
COc1ccc2c(c1)N(Cc1nc3c(Cl)c(Cl)ccc3s1)C(=O)C(CC(=O)O)S2 (centres unmarked): 6.8

Query: What does the data say about its IC50? Entry: CCOc1ccc2c(c1)SC(CC(=O)O)C(=O)N2Cc1nc2cc(F)ccc2s1 (centres unmarked)
Reply: 15

Query: Query (molecule): O=C(O)CC1Sc2ccccc2N(Cc2nc3cc(F)cc(F)c3s2)C1=O (centres unmarked) ; field requested: IC50
Reply: 14

Query: Return reported IC50; argument: Cc1ccc2c(c1)SC(CC(=O)O)C(=O)N2Cc1nc2ccc(F)c(F)c2s1 (centres unmarked)
Reply: 7.7

* * *

TARGET_OR_TEST_SYSTEM: human placenta aldehyde reductase (Homo sapiens)
Construct: the fraction containing aldehyde reductase activity eluted by salt concentration gradient was dialyzed and used as aldehyde reductase enzyme standard; from tissue; host or cells: human placenta
Sequence (P14550 1-325): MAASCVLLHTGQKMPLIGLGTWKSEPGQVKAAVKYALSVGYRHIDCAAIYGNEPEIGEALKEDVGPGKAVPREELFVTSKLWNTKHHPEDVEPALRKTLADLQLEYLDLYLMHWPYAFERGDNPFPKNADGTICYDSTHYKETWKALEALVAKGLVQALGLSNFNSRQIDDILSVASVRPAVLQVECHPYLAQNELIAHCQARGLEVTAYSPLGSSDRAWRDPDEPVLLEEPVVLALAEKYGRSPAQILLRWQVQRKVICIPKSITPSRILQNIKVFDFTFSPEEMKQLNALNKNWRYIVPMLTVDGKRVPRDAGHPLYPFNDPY
ASSAY_REMARKS: Aldehyde reductase of human origin inhibitory activity (specificity)
Assay type: biochemical
CONDITION_LABEL: 15 mM glucuronate, pH 7.0, read-out: 10 μM inhibition % HPALR
PROPERTY: inhibition at 10 µM (%)
Note: unit % is implicit; provide only the numeric part.

Known results for compounds:
O=C(O)CC1Sc2ccccc2N(Cc2nc3c(F)c(F)cc(F)c3s2)C1=O (centres unmarked) [Example 183]: 19.3
Cc1ccc2c(c1)N(Cc1nc3c(F)c(F)cc(F)c3s1)C(=O)C(CC(=O)O)S2 (centres unmarked) [Example 165]: 32.9
O=C(O)CC1Sc2c(F)cccc2N(Cc2nc3c(Cl)c(Cl)ccc3s2)C1=O (centres unmarked) [Example 167]: 28.6

Query: I'd like to know its inhibition at 10 µM. The compound in question is O=C(O)CC1Sc2cc(F)ccc2N(Cc2nc3c(F)c(F)cc(F)c3s2)C1=O (centres unmarked) [Example 188]
Reply: 19.1

Query: Recorded inhibition at 10 µM for O=C(O)CC1Sc2ccccc2N(Cc2nc3c(F)c(F)ccc3s2)C1=O (centres unmarked) [Example 189] , please?
Reply: 18.5
